src = patent US4486445A

protocol_description: in vitro toxicity in MDCK cells
Type: cell-based, Canine
run_parameters: dog, 0.01 μg/ml
assay_metric: cytotoxicity at 72 h

Prompt line: Recorded cytotoxicity at 72 h of COc1cc2c(OC)c3c(c(-c4ccc5c(c4)OCO5)c2cc1OC)C(=O)OC3OC (single isomer, unassigned) , please.
Response line: 1%

* * *

Give inhibition at 2 µg/mL for every item shown.
System: Human Rhino Virus (HRV-2)
protocol_description: inhibition of HRV-2 in HeLa cells
Format: cell-based, Human rhinovirus HRV-2
run_parameters: Rhinovirus A, HRV2, 2 μg/ml, 200 PFU
// return numeric value only (unit: %, not printed)

Prompt line: Recorded inhibition at 2 µg/mL of CCCCCCCCCCCCOC1OC(=O)c2c1c(OC)c1cc(OC)c(OC)cc1c2-c1ccc2c(c1)OCO2 (stereo not shown) , please.
Response line: 74

Prompt line: Recorded inhibition at 2 µg/mL of COc1cc2c(OC)c3c(c(-c4ccc5c(c4)OCO5)c2cc1OC)C(=O)OC3OC(C)C (stereo not shown) , please.
Response line: 14

* * *

protocol_description: in vitro toxicity in MDCK cells
Format: cell-based, Canine
run_parameters: dog, 0.25 μg/ml
assay_metric: cytotoxicity at 72 h (%)
// return numeric value only (unit: %, not printed)

Prompt line: Recorded cytotoxicity at 72 h of COc1cc2c(OC)c3c(c(-c4ccc5c(c4)OCO5)c2cc1OC)C(=O)OC3OC (single isomer, unassigned) , please.
Response line: 40

* * *

protocol_description: in vitro toxicity in MDCK cells
Type: cell-based, Canine
run_parameters: dog, 0.56 μg/ml
assay_metric: cytotoxicity at 72 h (%)
// return numeric value only (unit: %, not printed)

Prompt line: Recorded cytotoxicity at 72 h of COc1cc2c(OC)c3c(c(-c4ccc5c(c4)OCO5)c2cc1OC)C(=O)OC3OC (single isomer, unassigned) [Justicidin P (natural)] , please.
Response line: 70

* * *

protocol_description: in vitro toxicity in MDCK cells
Assay type: cell-based, Canine
run_parameters: dog, 0.11 μg/ml
assay_metric: cytotoxicity at 72 h (%)
// return numeric value only (unit: %, not printed)

Prompt line: Recorded cytotoxicity at 72 h of COc1cc2c(OC)c3c(c(-c4ccc5c(c4)OCO5)c2cc1OC)C(=O)OC3OC (single isomer, unassigned) , please.
Response line: 30
